The measurements presented in this section are drawn from paper PMC4336329.

Would you mind telling me the reported hERG current change (%, negative = inhibition) at 10uM of each entry?
Target: human ether-à-go-go-related gene (hERG) potassium channel (human);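 note: peak tail current of the secondary pulse compared with the same well before compound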
Sequence (Q12809 whole entry, looked up): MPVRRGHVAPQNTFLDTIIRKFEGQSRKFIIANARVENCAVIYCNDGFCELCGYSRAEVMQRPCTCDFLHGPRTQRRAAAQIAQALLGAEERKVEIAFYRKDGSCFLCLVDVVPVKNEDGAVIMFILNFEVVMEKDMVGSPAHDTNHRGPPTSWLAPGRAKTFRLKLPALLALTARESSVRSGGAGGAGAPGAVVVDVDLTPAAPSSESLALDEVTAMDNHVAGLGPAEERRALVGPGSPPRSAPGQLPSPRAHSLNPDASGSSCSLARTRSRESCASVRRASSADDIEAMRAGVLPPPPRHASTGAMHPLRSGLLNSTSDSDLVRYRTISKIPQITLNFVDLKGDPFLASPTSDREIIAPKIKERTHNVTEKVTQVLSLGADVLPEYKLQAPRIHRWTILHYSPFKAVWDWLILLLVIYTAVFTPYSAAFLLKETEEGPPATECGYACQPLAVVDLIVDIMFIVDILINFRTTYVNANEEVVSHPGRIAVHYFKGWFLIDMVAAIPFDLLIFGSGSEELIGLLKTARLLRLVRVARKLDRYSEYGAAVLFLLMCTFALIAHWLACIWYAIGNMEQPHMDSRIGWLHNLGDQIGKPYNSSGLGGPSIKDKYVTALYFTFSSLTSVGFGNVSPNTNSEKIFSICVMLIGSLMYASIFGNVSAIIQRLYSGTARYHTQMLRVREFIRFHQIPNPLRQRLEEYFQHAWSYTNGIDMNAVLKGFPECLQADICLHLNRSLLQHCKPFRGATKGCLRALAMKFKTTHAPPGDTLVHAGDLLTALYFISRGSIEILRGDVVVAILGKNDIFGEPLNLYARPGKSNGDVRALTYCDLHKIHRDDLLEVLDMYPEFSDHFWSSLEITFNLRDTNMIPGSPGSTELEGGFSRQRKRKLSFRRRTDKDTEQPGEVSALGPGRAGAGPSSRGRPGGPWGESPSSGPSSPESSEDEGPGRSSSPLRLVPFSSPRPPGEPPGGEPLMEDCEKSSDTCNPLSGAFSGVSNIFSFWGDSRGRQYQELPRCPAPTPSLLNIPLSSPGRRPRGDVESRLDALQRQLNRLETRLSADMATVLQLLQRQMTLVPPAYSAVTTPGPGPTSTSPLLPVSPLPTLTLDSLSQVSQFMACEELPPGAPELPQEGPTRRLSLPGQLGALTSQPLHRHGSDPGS
Assay: primary screen, population patch clamp on CHO cells stably expressing hERG; higher = less effect of the substance
In all, about 310,000 compounds went through this assay and about 14,000 (4.5%) showed an effect of 50% or more. The effect is printed as a negative number. For the sample, strong results were picked, then their nearest neighbours and some compounds at random.
Numbers only, in %.

Some solved cases for reference:
> print(dat)
                                   compound  result
1       CCOc1ccccc1CN1C(=O)NC2(CCCCCC2)C1=O    9.32
2  COc1ccccc1C(=O)NC1CC2CCC(C1)N2Cc1ccccc1 (centres unmarked)   -20.4
3  COC(=O)c1ccc2c(=O)n(CCCCCC(=O)NCc3ccc4c(c3)OCO4)c(=O)[nH]c2c1   -31.7

Answer for every listed entry: what is its hERG current change (%, negative = inhibition) at 10uM? The entries follow.
1. CCOc1ccccc1CNC(=O)C(C)n1nc(C)c2c(C)n(-c3ccccc3)nc2c1=O (centres unmarked)
2. Fc1cccc(Cl)c1Cn1nnc2c(-n3ccnc3)ncnc21
3. CCOc1ccccc1C(=O)NC1CC2CCCC(C1)N2C1CC1 (centres unmarked)
4. COc1cccc(CC(=O)OCC(=O)NC2(C#N)CCCCC2)c1
5. COc1ccccc1CNC(=O)C(C)n1nc(C)c2c(C)n(-c3ccccc3)nc2c1=O (centres unmarked)

Found:
1. -65.4
2. 0.152
3. -19
4. 16.5
5. -0.0415
